test system: Spodoptera frugiperda; assay: Growth inhibitory activity against first-instar larval stage of Spodoptera frugiperda (fall armyworm) fed with compound incorporated diet assessed as length gained at 35 ug/ml after 21 days (reference value: 100%); format: functional
Assign Length gained relative to control to each entry below.
Numbers only, in %.

1) CC(C)c1ccc2c(c1)CC[C@H]1[C@](C)(CO)CCC[C@]21C :: 37.4
2) C=CC(C)(C)C1=C(O)C(=O)c2ccccc2C1=O :: 4.1
3) C[C@H]1[C@H](C)CC[C@]2(C(=O)O)CC[C@]3(C)C(=CC[C@@H]4[C@@]5(C)CC[C@H](O)C(C)(C)[C@@H]5CC[C@]43C)[C@H]12 :: 0

In: What does the data say about its Length gained relative to control? Entry: `C=C[C@]1(C)CC[C@H]2C(=CC[C@@H]3[C@](C)(CO)CC[C@@H]4C[C@@]432)C1`
Out: 0

----------
tested on: Spodoptera frugiperda; assay: Acute toxicity against last larval stage of Spodoptera frugiperda (fall armyworm) assessed as survival at 5 ug/ml applied topically onto abdomen measured after 24 hr (reference value: 98.8 +/-3.5%); format: functional
READOUT_KIND: Activity (%)
Answers are plain numbers, in %.

Examples with answers:
1) C[C@H]1[C@H](C)CC[C@]2(C(=O)O)CC[C@]3(C)C(=CC[C@@H]4[C@@]5(C)CC[C@H](O)C(C)(C)[C@@H]5CC[C@]43C)[C@H]12 :: 73
2) CC(C)c1ccc2c(c1)CC[C@H]1[C@](C)(CO)CCC[C@]21C :: 75
3) C=CC(C)(C)C1=C(O)C(=O)c2ccccc2C1=O :: 35.5

In: Notebook entry, Spodoptera frugiperda assay: Activity of `C=C[C@]1(C)CC[C@H]2C(=CC[C@@H]3[C@](C)(CO)CC[C@@H]4C[C@@]432)C1` = ?
Out: 27

----------
I'd appreciate it if you could supply Growth_index values for the items below.
tested on: Spodoptera frugiperda; experiment: Growth inhibitory activity against Spodoptera frugiperda (fall armyworm) larvae fed with compound containing diet assessed as relative growth index at 35 ug/ml (reference value: 1.0 no_unit); format: functional
Answers are plain numbers.

Items follow; give Growth_index for each.
1. C=CC(C)(C)C1=C(O)C(=O)c2ccccc2C1=O
2. C=C[C@]1(C)CC[C@H]2C(=CC[C@@H]3[C@](C)(CO)CC[C@@H]4C[C@@]432)C1
3. CC(C)c1ccc2c(c1)CC[C@H]1[C@](C)(CO)CCC[C@]21C [POMIFERIN A]
4. C[C@@H]1O[C@@H](O[C@@H]2[C@@H](O)[C@H](OCCc3ccc(O)c(O)c3)O[C@H](CO)[C@H]2OC(=O)/C=C/c2ccc(O)c(O)c2)[C@H](O)[C@H](O)[C@H]1O [ACETOSIDE]

Out:
1: 0.1; 2: 0.1; 3: 0.75; 4: 0.15

----------
system: Spodoptera frugiperda; experiment: Growth inhibitory activity against first-instar larval stage of Spodoptera frugiperda (fall armyworm) fed with compound incorporated diet assessed as length gained at 50 ug/ml after 7 days (reference value: 100%); assay type: functional
READOUT_KIND: Length gain relative to control (%)
Numbers only, in %.

See these solved cases before continuing.
1) C[C@H]1[C@H](C)CC[C@]2(C(=O)O)CC[C@]3(C)C(=CC[C@@H]4[C@@]5(C)CC[C@H](O)C(C)(C)[C@@H]5CC[C@]43C)[C@H]12 :: 3.4
2) CC(=O)O[C@@H]1C[C@H]2C(C)(C)C(=O)C=C[C@]2(C)[C@H]2CC[C@@]3(C)[C@H](c4ccoc4)OC(=O)[C@H]4O[C@]43[C@@]21C :: 16.7
3) C=C[C@]1(C)CC[C@H]2C(=CC[C@@H]3[C@](C)(CO)CC[C@@H]4C[C@@]432)C1 :: 0
4) C=CC(C)(C)C1=C(O)C(=O)c2ccccc2C1=O :: 0

In: Quick one: Length gain relative to control for `CC(C)c1ccc2c(c1)CC[C@H]1[C@](C)(CO)CCC[C@]21C` ?
Out: 33.3

----------
For each record, write down the corresponding Larval weight gain relative to control.
tested on: Spodoptera frugiperda; test: Growth inhibitory activity against first-instar larval stage of Spodoptera frugiperda (fall armyworm) fed with compound incorporated diet assessed as weight gained at 5 ug/ml after 21 days (reference value: 100%); assay type: functional

Example entries and their recorded answers appear below.
1. C[C@H]1[C@H](C)CC[C@]2(C(=O)O)CC[C@]3(C)C(=CC[C@@H]4[C@@]5(C)CC[C@H](O)C(C)(C)[C@@H]5CC[C@]43C)[C@H]12 [URSOLIC ACID] :: 51.9%
2. CC(C)c1ccc2c(c1)CC[C@H]1[C@](C)(CO)CCC[C@]21C [POMIFERIN A] :: 93.5%
3. C=CC(C)(C)C1=C(O)C(=O)c2ccccc2C1=O :: 35.6%

Next up:
In: # lookup: Larval weight gain relative to control of `C=C[C@]1(C)CC[C@H]2C(=CC[C@@H]3[C@](C)(CO)CC[C@@H]4C[C@@]432)C1`
Out: 20.1%

----------
system: Spodoptera frugiperda; test: Growth inhibitory activity against first-instar larval stage of Spodoptera frugiperda (fall armyworm) fed with compound incorporated diet assessed as length gained at 20 ug/ml after 7 days (reference value: 100%); assay type: functional
READOUT_KIND: Length gained relative to control (%)
One number for each entry, in %.

Go through the items and report each one's Length gained relative to control.
1. C[C@H]1[C@H](C)CC[C@]2(C(=O)O)CC[C@]3(C)C(=CC[C@@H]4[C@@]5(C)CC[C@H](O)C(C)(C)[C@@H]5CC[C@]43C)[C@H]12
2. CC(C)c1ccc2c(c1)CC[C@H]1[C@](C)(CO)CCC[C@]21C
3. C=C[C@]1(C)CC[C@H]2C(=CC[C@@H]3[C@](C)(CO)CC[C@@H]4C[C@@]432)C1
4. C=CC(C)(C)C1=C(O)C(=O)c2ccccc2C1=O

Out:
1. 8.9
2. 64.2
3. 18.3
4. 20.8

----------
Please go through the items and note down their Weight gain relative to control.
system: Spodoptera frugiperda; assay: Growth inhibitory activity against first-instar larval stage of Spodoptera frugiperda (fall armyworm) fed with compound incorporated diet assessed as weight gained at 50 ug/ml after 21 days (reference value: 100%); format: functional
Give bare numbers, in %.

Consider the following illustrative entries.
1) C=C[C@]1(C)CC[C@H]2C(=CC[C@@H]3[C@](C)(CO)CC[C@@H]4C[C@@]432)C1 :: 0
2) CC(C)c1ccc2c(c1)CC[C@H]1[C@](C)(CO)CCC[C@]21C :: 33.6
3) C=CC(C)(C)C1=C(O)C(=O)c2ccccc2C1=O :: 0
4) C[C@H]1[C@H](C)CC[C@]2(C(=O)O)CC[C@]3(C)C(=CC[C@@H]4[C@@]5(C)CC[C@H](O)C(C)(C)[C@@H]5CC[C@]43C)[C@H]12 :: 0

In: Data request, read-out Weight gain relative to control, for `CC(=O)O[C@@H]1C[C@H]2C(C)(C)C(=O)C=C[C@]2(C)[C@H]2CC[C@@]3(C)[C@H](c4ccoc4)OC(=O)[C@H]4O[C@]43[C@@]21C`
Out: 2.05

----------
tested on: Spodoptera frugiperda; test: Insecticidal activity against first-instar larval stage of Spodoptera frugiperda (fall armyworm) fed with compound incorporated diet assessed as mortality at 10 ug/ml after 7 days (reference value: 5.6%); assay type: functional; details: 168 h
READOUT_KIND: mortality at 10 µg/mL (%)
Answers are plain numbers, in %.

1) C[C@H]1[C@H](C)CC[C@]2(C(=O)O)CC[C@]3(C)C(=CC[C@@H]4[C@@]5(C)CC[C@H](O)C(C)(C)[C@@H]5CC[C@]43C)[C@H]12 [URSOLIC ACID] :: 16.7
2) CC(=O)O[C@@H]1C[C@H]2C(C)(C)C(=O)C=C[C@]2(C)[C@H]2CC[C@@]3(C)[C@H](c4ccoc4)OC(=O)[C@H]4O[C@]43[C@@]21C [GEDUNIN] :: 33

Quick one: give me mortality at 10 µg/mL for each item below, same order please.
1. C=C[C@]1(C)CC[C@H]2C(=CC[C@@H]3[C@](C)(CO)CC[C@@H]4C[C@@]432)C1
2. CC(C)c1ccc2c(c1)CC[C@H]1[C@](C)(CO)CCC[C@]21C [POMIFERIN A]
3. C=CC(C)(C)C1=C(O)C(=O)c2ccccc2C1=O

Out:
37.3
41.7
83.3

----------
Please provide measured Weight gain relative to control for the entries that follow.
tested on: Spodoptera frugiperda; assay: Growth inhibitory activity against first-instar larval stage of Spodoptera frugiperda (fall armyworm) fed with compound incorporated diet assessed as weight gained at 20 ug/ml after 21 days (reference value: 100%); type: functional
# do not omit the unit; it follows the number

Previously resolved entries follow.
1) C=C[C@]1(C)CC[C@H]2C(=CC[C@@H]3[C@](C)(CO)CC[C@@H]4C[C@@]432)C1 :: 0%
2) C=CC(C)(C)C1=C(O)C(=O)c2ccccc2C1=O :: 9%
3) CC(C)c1ccc2c(c1)CC[C@H]1[C@](C)(CO)CCC[C@]21C :: 50.6%

Lab note: next molecule to report on.
In: I'd like to know its Weight gain relative to control. The molecule in question is `C[C@H]1[C@H](C)CC[C@]2(C(=O)O)CC[C@]3(C)C(=CC[C@@H]4[C@@]5(C)CC[C@H](O)C(C)(C)[C@@H]5CC[C@]43C)[C@H]12`
Out: 30.1%
